These data points were gathered from paper PMC4877059.

assay protocol: Mouse pharmacokinetics, 10 mpk IP
Format: in vivo
applied conditions: plasma, ip, 10 mg/kg, Plasma concentration, mean, 10 mpk IP, 2 hr
readout kind: concentration at 2 h

Entry under test: Cc1c(P(=S)(c2ccccc2)c2ccccc2)n2ccccc2[n+]1C/C=C/c1ccccc1.[Br-] [20e] . Its concentration at 2 h was 386 nM

* * *

assay protocol: Mouse pharmacokinetics, 10 mpk IP
Type: in vivo
applied conditions: plasma, ip, 10 mg/kg, Plasma concentration, mean, 10 mpk IP, 4 hr
readout kind: concentration at 4 h (nM)
Answers are plain numbers, in nM.

Entry under test: Cc1c(P(=S)(c2ccccc2)c2ccccc2)n2ccccc2[n+]1C/C=C/c1ccccc1.[Br-] [20e] . Its concentration at 4 h was 245

* * *

system name: NPSR (Homo sapiens)
Sequence (Q6W5P4 whole entry): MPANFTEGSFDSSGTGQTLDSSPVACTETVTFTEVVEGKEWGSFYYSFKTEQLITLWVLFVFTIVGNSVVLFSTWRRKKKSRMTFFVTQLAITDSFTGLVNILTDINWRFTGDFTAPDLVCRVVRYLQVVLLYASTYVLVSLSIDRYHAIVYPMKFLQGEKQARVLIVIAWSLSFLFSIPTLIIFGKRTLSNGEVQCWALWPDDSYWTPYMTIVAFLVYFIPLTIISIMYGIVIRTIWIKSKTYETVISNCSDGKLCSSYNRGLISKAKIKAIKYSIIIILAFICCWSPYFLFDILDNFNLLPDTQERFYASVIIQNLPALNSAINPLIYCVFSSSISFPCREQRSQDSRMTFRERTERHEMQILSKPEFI
assay protocol: ERK assay
Type: cell-based
applied conditions: ERK IC50, Table 1; CHO-NPS cells, 1 nM NPS (EC80); one experiment in duplicate
readout kind: IC50 (µM)
Answers are plain numbers, in µM.

Entry under test: Cc1nc2ccccn2c1P(=S)(c1ccccc1)c1ccccc1 [12d] . Its IC50 was 0.03
